Measurement protocol: folding stability dG unfold from chymotrypsin proteolysis; higher = more stable
Property measured: folding stability dG unfold (kcal/mol)
Write the answer as a number in kcal/mol, unit excluded.

- Primary sequence: "SAGKEIIIPFRDIPPKYIKNQLKKFPPGKEIRIMFPGPEVADYLKEKGFPVRPERIKPITPDDMAKMMNSAG [r5_354_TrROS]"
  Reading unit: "kcal/mol"
  Numeric value: -0.186
- Primary sequence: "SAGGSAGGSAGGGMSSAPPVTITPVSETTERLPNGTLVRTTTYAVDDGSTVTTTTVTPVSSAGGSAGGSAGG [r7_948_JUSTAS]"
  Reading unit: "kcal/mol"
  Numeric value: 0.952
- Primary sequence: "SASLVVRLPDGTEILFENLSLEEVVKLFDGGEIEIEPVPKLPVVNASSLEEAEEIAEKLKPDFVITLSGSAG [r14_445_TrMRF]"
  Reading unit: "kcal/mol"
  Numeric value: 1.6
- Primary sequence: "SAGGSAGGMNPTVTPVEVDVGDKPLTVFLFGDGTALVLFPDGGLAGAPVGTPDDRPVNLAIIGPSAGGSAGG [r6_239_TrMRF]"
  Reading unit: "kcal/mol"
  Numeric value: 0.955
- Primary sequence: "SAGGSAGGIKEILKEARENPENAESVTIRIPMEVPVTRYDPDNGEPETHPHPVPGEITIPPDDLSAGGSAGG [r6_560_TrROS]"
  Reading unit: "kcal/mol"
  Numeric value: 1.16
- Primary sequence: "SAMPLDDLPAEQIRELVRSIMRKHGMPPDNVEVDVEVQRPPDGYYYITVDVEMRMNGKERKYKFTIWIPSAG [r14_703_TrROS]"
  Reading unit: "kcal/mol"
  Numeric value: 4.17

Shifting focus to the sequence that follows.
Field folding stability dG unfold (entry SAGMKKKKIKKVEIEIKKGEKTIRVKLENGEEIEYKFKEEDLEEALKKIAEKLGLKKGDKIKIVEIEIESAG [r5_923_TrROS_Hall] ) reads 0.907
